# Experimental Protocol: chemical genetic growth profiling, strain panel (AID 1159580);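 further: tested at 20 µM; growth read once vehicle control cultures reached saturation at 30 °C; 1 = growth at the plate median or of vehicle wells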
# Condition Notes: S. cerevisiae deletion strains, growth OD, locus YGL167C, strain pmr1
The campaign covered roughly 5,500 compounds. About 2,000 (36%) were called active. Inconclusive results (about 18%) are left out. No stated cut-off is given here; in the data, active means normalized growth mostly below about 0.91 (no sharp cut-off); inconclusive means no clear call, values can overlap the other calls; inactive means mostly above about 0.92. The list shows a part of the results.
Thanks in advance; please answer with one of these: active, inactive

Qu. Which result was noted for this molecule in the test: NC(N)=O
Ans. inactive

Qu. Which result was noted for this molecule in the test: O=c1cc(-c2ccccc2)oc2cc(O)c(O)c(O)c12
Ans. active

Qu. Which result was noted for this molecule in the test: Cc1cc(=O)oc2c(O)c(O)ccc12
Ans. inactive

Qu. Which result was noted for this molecule in the test: Nc1cc(-c2ccncc2)c[nH]c1=O
Ans. inactive

Qu. Which result was noted for this molecule in the test: CSc1ccc2c(c1)N(CCC1CCCCN1C)c1ccccc1S2 (stereo not given)
Ans. inactive

----------
# Experimental Protocol: chemical genetic growth profiling, strain panel (AID 1159580);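 further: tested at 20 µM; growth read once vehicle control cultures reached saturation at 30 °C; 1 = growth at the plate median or of vehicle wells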
# Condition Notes: S. cerevisiae deletion strains, growth OD, locus YOR106W, strain vam3
Among all 5,500 compounds or so, about 2,000 (36%) were called active. Roughly 18% stayed inconclusive and do not appear here. Cut-off read from the data, not from the text of the source: active = normalized growth mostly below about 0.91 (no sharp cut-off); inconclusive = no clear call, values can overlap the other calls; inactive = mostly above about 0.92. This is one part of the list.
Thanks in advance; please answer with one of these: true (active), false (inactive)

The following compounds have reported results that may help.
Compound	Answer Label
CN(C(=O)CN(CCO)CC(=O)N(C)C(C)(C)Cc1ccccc1)C(C)(C)Cc1ccccc1	false
CCC(=O)Nc1ccc(Cl)c(Cl)c1	false
COc1cc([C@H]2Oc3cc([C@H]4Oc5cc(O)cc(O)c5C(=O)[C@@H]4O)ccc3O[C@@H]2CO)ccc1O	false
NNCCc1ccccc1	false
CC[C@H](CCC(C)[C@H]1CCC2C3CCC4C[C@@H](O)CC[C@]4(C)C3CC[C@@]21C)C(C)C (stereo partly specified)	false
COc1cc(C)c(C(=O)Oc2cc(C)c(C(=O)O)c(O)c2C)c(OC)c1C	false
Cc1nc2ccccn2c(=O)c1CCN1CCC(C(=O)c2ccc(F)cc2)CC1	false
Nc1cc(C(Cl)=C(Cl)Cl)c(S(N)(=O)=O)cc1S(N)(=O)=O	false
CC(CN(C)C)CN1c2ccccc2CCc2ccccc21 (stereo unspecified)	false
CCN(CC)CCOC(=O)C(c1ccccc1)c1ccccc1	false

Qu. Which result was noted for this compound in the test: O=C(Nc1ccccc1)Nc1ccccc1
Ans. false

Qu. Which result was noted for this compound in the test: CC(CCC(=O)O)[C@H]1CCC2C3CC[C@@H]4CCCC[C@]4(C)C3CC[C@@]21C (stereo partly specified)
Ans. false

Qu. Which result was noted for this compound in the test: CCCCCC1C(=O)CCC1CC(=O)O (stereo unspecified)
Ans. false

Qu. Which result was noted for this compound in the test: C/C=C/C(=O)N(CC)c1ccccc1C
Ans. false

Qu. Which result was noted for this compound in the test: S=P(N1CC1)(N1CC1)N1CC1
Ans. false

----------
# Experimental Protocol: chemical genetic growth profiling, strain panel (AID 1159580);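 further: tested at 20 µM; growth read once vehicle control cultures reached saturation at 30 °C; 1 = growth at the plate median or of vehicle wells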
# Condition Notes: S. cerevisiae deletion strains, growth OD, locus YKL067W, strain YNK1, stronger effect = lower value
Among all 5,500 compounds or so, about 2,000 (36%) were called active. Another 18% or so got no clear call; they are omitted. The list shows a part of the results.
Result Type: normalized growth
Please state the value as a number alone, without comment.

Worked examples follow.
S=C(Nc1cc(Cl)c(Cl)cc1Cl)Nc1ccccc1Br 0.892
CSC(=NNc1ccccc1)NC(=O)c1c(Cl)cccc1Cl 0.892
CNC(=O)n1nc(C)c(Cc2csc3ccc(Cl)cc23)c1C 0.91

Now look at this one.
Value of measured normalized growth for the entry Cc1ccc(S(=O)(=O)Nc2ccc(Oc3ccc(F)cc3)cc2)cc1 : 0.905
